I'd appreciate it if you could supply growth values for the items below.
- Test system: M14 melanoma
- Measurement description: NCI-60 one-dose screen, 48 h (100 = growth as untreated, 0 = no growth, -100 = all killed)
- Test settings: 10 µM unless noted
This is part of a sample that, as a whole, favours compounds with a hit. Of some 83,000 tested, about 20% had one in any assay.
Give the number; % is assumed, so skip it.

For record COc1ccc(C2=NN(C=O)C(c3ccc(Oc4nc5c(c(=O)n(C)c(=O)n5C)n4C)c(OC)c3)C2)cc1 (stereo unspecified) the listed growth is 68.9

For record O=C1NCCN1/N=C/c1c(Cl)n(Cc2ccc(Cl)cc2)c2ccccc12 the listed growth is 114

For record COc1ccc(/C=C\c2cc(OC)c(OC)c(OC)c2)cc1OCC(=O)Nc1nc2ccccc2s1 the listed growth is 27.6

For record O=C(Nc1ccccc1C(F)(F)F)C1=NCCCCN1 the listed growth is 98.3

For record CCN1C(=O)N(CC)C2C1NC(=S)N2/N=C/C=C/c1cccs1 (stereo unspecified) the listed growth is 12.3

For record CCN(CC)CCCC(Nc1c2ccc(Cl)cc2nc2ccc(OC)cc12)c1ccncc1 (stereo unspecified) the listed growth is 113

For record Nc1cc(-c2ccc(Cl)cc2)nn1-c1nc(-c2ccc(Br)cc2)cs1 the listed growth is 96.1

For record CC(CN)[C@@H]1CC[C@]2(CO)CC[C@]3(C)[C@H](CC[C@@H]4[C@@]5(C)CCC(NCCO)C(C)(C)[C@@H]5CC[C@]43C)[C@@H]12 (stereo partly specified) the listed growth is -2.37

For record CCN1C(=O)N(CC)C2C1NN=c1s/c(=C3\C(=O)N(C)c4ccccc43)c(=O)n12 (stereo unspecified) the listed growth is 43.1

For record CCOC(=O)c1ccc2c(c1)[n+](=O)c(C(C)=O)c(C(F)(F)F)n2[O-] the listed growth is 8.64

For record CC/C(=C(/c1ccc(Cl)cc1)c1ccc(OCCCN(C)C)cc1)c1ccc(OC)cc1 the listed growth is 32.8

For record O=c1c(/C=C/c2c(O)ccc3ccccc23)nnc2sc(-c3cccc([N+](=O)[O-])c3)nn12 the listed growth is 52.3

For record NCCCCCNc1noc(Cc2c[nH]c3cc(Br)ccc23)n1 the listed growth is -26.3

For record Cc1c(N2CCCCC2)[nH]c2ccccc12 the listed growth is 105

For record O=C1NC(=O)C(=Cc2cc(-c3ccc(Cl)cc3)n(-c3ccccc3)n2)C(=O)N1 the listed growth is 93.1

For record CN1C(=O)N(C)C2C1NN=c1s/c(=C\c3ccc(F)cc3)c(=O)n12 (stereo unspecified) the listed growth is 23.1

For record Cc1cc(=O)oc2cc(Oc3nc(-c4ccccc4)cn4c(-c5ccccc5)cnc34)ccc12 the listed growth is 67.7

For record COc1ccc(-c2ccc(-c3ccc(C(=N)N)nc3)s2)cc1 the listed growth is -56.6

For record Cc1nn(-c2ccccc2)c(Oc2ccccc2)c1/C=N/NC(=O)Cn1c(=O)sc2ccccc21 the listed growth is 56.2

For record COc1ccccc1NC(=O)n1c(=O)cc(C)c2ccc(O)cc21 the listed growth is 113

For record COc1cc(/C=C2\CN(S(=O)(=O)c3ccc(C)cc3)C/C(=C\c3cc(CN4CCCC4)c(O)c(OC)c3)C2=O)cc(CN2CCCC2)c1O the listed growth is -66.4

For record CSc1nc(CC(C)C)c(C#N)c(=O)n1C the listed growth is 70.7

For record CCN(CC)c1ccc(/C=N/NC(=O)c2ccccc2Nc2ccnc(C(F)(F)F)c2)c(O)c1 the listed growth is -17.4

For record O=C1/C(=C/c2cccc([N+](=O)[O-])c2)COc2ccc(O)c(O)c21 the listed growth is -63.9

For record C=C(CNCCO)[C@@H]1CC[C@]2(CO)CC[C@]3(C)[C@H](CC[C@@H]4[C@@]5(C)CCC(NCCO)C(C)(C)[C@@H]5CC[C@]43C)[C@@H]12 (stereo partly specified) the listed growth is 14.3

For record C#CC#CC#CC#CC#CC#CC#CC#CC[C@@H]1OC[C@H](COC(=O)O[C@@H](C(=O)O[C@H]2C[C@@]3(O)[C@@H](OC(=O)c4ccccc4)[C@@H]4[C@]5(OC(C)=O)CO[C@@H]5C[C@H](O)[C@@]4(C)C(=O)[C@H](OC(C)=O)C(=C2C)C3(C)C)[C@@H](NC(=O)c2ccccc2)c2ccccc2)O1 the listed growth is 18.6

For record COc1cccc(NC(=O)c2sc3nc(C)c(C(=O)c4ccccc4)cc3c2N)c1 the listed growth is 80.6

For record CCN1C(=O)N(CC)C2C1NN=c1s/c(=C\c3ccccc3)c(=O)n12 (stereo unspecified) the listed growth is 8.9

For record c1ccc(-c2nc(N3CCNCC3)c3oc(-c4ccccc4)nc3n2)cc1 the listed growth is -60.3

For record Cc1c(C(=O)C(SC(=S)N2CCOCC2)SC(=S)N2CCOCC2)nnn1-c1ccc([N+](=O)[O-])cc1 the listed growth is 89.8

For record COc1cc(OCc2cccc(-c3ccc4c(c3)OCCO4)c2C)cc(OC)c1C=O the listed growth is 59.2

For record Nc1ccc(Cl)c2c(=O)c3ccccc3[nH]c12 the listed growth is 91.1

For record COc1cc(NC(=O)c2cncnc2Nc2ccc3c(ccn3Cc3cccc(F)c3)c2)cc(OC)c1 the listed growth is 47.2

For record Cn1cc(-c2ccc3occ(-c4cccc(-c5ccncc5)c4)c3n2)cn1 the listed growth is 1.71

For record COc1cc2c(c(OC)c1OC)CCC(c1cccc(C(=O)Nc3ccc([N+](=O)[O-])cc3)c1)O2 (stereo unspecified) the listed growth is 30.7

For record COc1ccc(S(=O)(=O)Oc2ccc(-c3sc4cc(OS(=O)(=O)c5ccc(OC)cc5)ccc4c3C(=O)c3ccc(OCCN4CCCCC4)cc3)cc2)cc1 the listed growth is 105
